test system: CP305; test: qHTS profiling for inhibitors of Plasmodium falciparum proliferation (AID 504749); further: nearly all actives have a fitted effect of over 60% in size; conditions: P. falciparum in erythrocytes, SYBR Green DNA, 72 h; series mostly up to 28.7 µM
Inconclusive results are not listed. Active and inactive are the calls of the source. The call rests on the fitted dose curve; in most records, active means well fitted inhibition curve with a large enough effect; inconclusive means small, poorly fitted or top-dose-only effect; inactive means flat fitted curve, though single readings scatter.
Choose one outcome from this list and give only that: 1 (active), -1 (inactive)

Examples from the recorded data:
Compound: CC(C)(C)NC[C@H](O)COc1cccc2c1CCCC2=O
Label: -1

Compound: CCN(CC)CCNC(=O)c1cc(Br)c(N)cc1OC
Label: -1

Compound: CC(C)(C)NC[C@H](O)COc1nsnc1N1CCOCC1
Label: 1

Compound: O[C@@H](c1cc(C(F)(F)F)nc2c(C(F)(F)F)cccc12)[C@H]1CCCCN1
Label: 1

Recorded test outcome, item `NS(=O)(=O)c1cc(C(=O)O)cc(N2CCCC2)c1Oc1ccccc1`
-1

Recorded test outcome, item `CCOc1ccc(NC(C)=O)cc1`
-1

---

assay: qHTS of pediatric cancer cell lines to identify multiple opportunities for drug repurposing: Confirmatory screen for RD cells (AID 1347124); details: RD rhabdomyosarcoma cell viability; series mostly up to 45.9 µM;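 further: cells exposed to compound for 48 h before viability readout; nearly all actives have a fitted effect of over 65% in size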
Inconclusive results are not listed. The source made the active and inactive calls. The call rests on the fitted dose curve; in most records, active means well fitted cell-killing curve with a large enough effect; inconclusive means small, poorly fitted or top-dose-only effect, or effect the other way; inactive means no such curve, though single readings can be large or run the other way.
Choose one outcome from this list and give only that: 1 = active, 0 = inactive

Examples from the recorded data:
Structure notation: NC(N)=NN=C(/C=C/c1ccc([N+](=O)[O-])o1)/C=C/c1ccc([N+](=O)[O-])o1
Label: 1

Structure notation: O=[N+]([O-])c1ccc(/C=N\O)o1
Label: 1

Structure notation: CN(C)C(=O)Nc1ccc(Cl)c(Cl)c1
Label: 0

Recorded test outcome, item `O=C(CCCN1CC=C(n2c(=O)[nH]c3ccccc32)CC1)c1ccc(F)cc1`
0

Recorded test outcome, item `Nc1nc(Cl)nc2c1ncn2[C@@H]1O[C@H](CO)[C@@H](O)[C@@H]1F`
0

---

Biological target: Cytochrome P450 3A4 (Homo sapiens)
Assay: Cytochrome P450 family 3 subfamily A member 4 (CYP3A4) small molecule antagonists: luciferase qHTS assay (AID 1645841); further: nearly all actives have a fitted effect of over 45% in size
Conditions: P450-Glo CYP3A4 enzyme assay, luciferin luminescence; series mostly up to 57.4 µM
Text: National Center for Advancing Translational Sciences [NCATS] Cytochrome P450 (CYP) enzymes are membrane-bound hemeproteins that play a key role in metabolism of drugs and xenobiotics. Assaying the effect of chemicals on CYP isozymes is useful to minimize the adverse drug reactions and toxicities in drug development process. […] The luciferin products formed are detected with a luciferin detection reagent, and the amount of light produced is proportional to CYP activity. […]
Results filed as inconclusive are left out. Active and inactive are the calls of the source. Calls come from the whole dose curve; as a rule, active = well fitted inhibition curve with a large enough effect in the repeat runs; inconclusive = weak or mixed curves; inactive = no such curve, though single readings can be large or run the other way.
Choose one outcome from this list and give only that: active, inactive

Recorded test outcome, item `Nc1nc(-c2ccccc2)c(Br)c(=O)[nH]1`
inactive

---

Assay: qHTS of pediatric cancer cell lines to identify multiple opportunities for drug repurposing: Primary screen for DAOY cells (AID 1347090);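 further: plate controls were DMSO for no effect and bortezomib for full effect; nearly all actives have a fitted effect of over 55% in size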
Details: DAOY medulloblastoma viability, CellTiter-Glo luminescence, 48 h; series mostly up to 46 µM
Protocol: Drug repurposing or repositioning has been offered as a strategy for drug development in oncology programs. […] [1] Shen, M et al. Quantitative high-throughput phenotypic screening of pediatric cancer cell lines identifies multiple opportunities for drug repurposing. […] Cells were assayed in growth media at a density of 500-1,000 cells/well. […] After a 15 min incubation at room temperature, samples were analyzed for luminescence intensity using a ViewLux High-throughput CCD imager equipped with clear filters.
Results filed as inconclusive are left out. Calls of active or inactive are those of the source. The call rests on the fitted dose curve; in most records, active means well fitted cell-killing curve with a large enough effect; inconclusive means small, poorly fitted or top-dose-only effect; inactive means flat fitted curve, though single readings scatter.
Observed property: outcome

Below: 5 compounds and their reported outcome.
Compound: CC(=O)O[C@H]1C[C@@H]2CC[C@@H]3[C@H](CC[C@@]4(C)[C@H]3C[C@H]([N+]3(C)CCCCC3)[C@@H]4OC(C)=O)[C@@]2(C)C[C@@H]1N1CCCCC1
outcome: inactive

Compound: COc1ccc(C(=O)c2ccccc2O)c(O)c1
outcome: inactive

Compound: COc1cc(C(=S)N2CCOCC2)ccc1O
outcome: inactive

Compound: CC(=O)Nc1ncc([N+](=O)[O-])s1
outcome: inactive

Compound: O=C(O)Cc1csc(-c2ccc(Cl)cc2)n1
outcome: inactive

Notebook: `CCc1cc(Cl)c(OC)c(C(=O)NC[C@@H]2CCCN2CC)c1O` , outcome read as inactive

Notebook: COC(=O)C(c1ccccc1Cl)N1CCc2sccc2C1 (stereo not drawn) , outcome read as inactive

Notebook: `CN(Cc1ccc(C(C)(C)C)cc1)Cc1cccc2ccccc12` , outcome read as inactive

Notebook: CC(C)[N+](C)(C)CC(O)COc1cccc2ccccc12 (stereo not drawn) , outcome read as inactive

Notebook: `O=[N+]([O-])c1cccc(S(=O)(=O)NCCNS(=O)(=O)c2cccc([N+](=O)[O-])c2)c1` , outcome read as inactive

Notebook: `C/C=C/c1ccc(O)c(OC)c1` , outcome read as inactive
